# target.desc: CDK7/cyclinH/MAT1 trimeric complex (Homo sapiens)
# Sequence (P50613 whole entry): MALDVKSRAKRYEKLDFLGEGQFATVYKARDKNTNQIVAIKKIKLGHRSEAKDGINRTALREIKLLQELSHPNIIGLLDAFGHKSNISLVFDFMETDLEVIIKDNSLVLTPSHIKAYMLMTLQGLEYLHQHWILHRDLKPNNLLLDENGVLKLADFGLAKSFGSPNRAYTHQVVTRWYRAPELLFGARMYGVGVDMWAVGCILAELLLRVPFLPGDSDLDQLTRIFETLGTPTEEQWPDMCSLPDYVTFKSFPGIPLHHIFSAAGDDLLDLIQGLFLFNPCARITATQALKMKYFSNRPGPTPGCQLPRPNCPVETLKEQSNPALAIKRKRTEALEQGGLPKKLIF
# Sequence (P51946 whole entry partner): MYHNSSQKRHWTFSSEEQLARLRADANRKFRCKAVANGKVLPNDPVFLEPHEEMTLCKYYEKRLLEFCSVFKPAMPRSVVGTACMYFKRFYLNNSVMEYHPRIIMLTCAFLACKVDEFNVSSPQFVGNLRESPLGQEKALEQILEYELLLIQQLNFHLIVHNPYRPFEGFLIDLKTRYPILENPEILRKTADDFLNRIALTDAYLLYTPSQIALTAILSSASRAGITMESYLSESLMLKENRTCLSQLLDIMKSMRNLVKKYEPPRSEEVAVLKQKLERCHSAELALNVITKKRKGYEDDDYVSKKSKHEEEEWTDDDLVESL
# Sequence (P51948 whole entry partner): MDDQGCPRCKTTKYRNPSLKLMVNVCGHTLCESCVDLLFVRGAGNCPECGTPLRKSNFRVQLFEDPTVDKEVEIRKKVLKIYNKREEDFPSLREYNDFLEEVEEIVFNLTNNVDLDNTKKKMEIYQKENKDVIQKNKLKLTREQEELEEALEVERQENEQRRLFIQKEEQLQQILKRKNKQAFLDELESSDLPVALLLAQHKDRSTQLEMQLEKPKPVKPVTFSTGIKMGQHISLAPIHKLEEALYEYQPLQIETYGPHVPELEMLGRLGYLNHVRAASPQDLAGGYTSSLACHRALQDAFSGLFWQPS
# assay.info: In vitro CDK7 assay, potency of irreversible covalent inhibitors (kinact/KI), coupled PK/LDH ADP readout at 340 nm
# details: read-out: CDK7 (20 nM enz.) (kinact, s^−1), 20 nM enzyme
experimental.endpoint: kinact (s⁻¹)

1. C=CC(=O)N1CC(N2CCC(c3cc4c(cc3CO)OCc3c(N5CCOCC5)ccnc3N4)CC2)C1; 6.73e-05
2. C=CC(=O)N1CC[C@H](N2CCC(c3cc4c(c(C)n3)OCc3c(N5CCOCC5)ccnc3N4)CC2)C1 (single isomer, unassigned) [Compound 183]; 5.78e-05
3. C=CC(=O)N1CC(N2CCC(c3cc4c(cn3)O[C@H](C)c3c(N5CCOCC5)ccnc3N4)CC2)C1 (single isomer, unassigned) [Compound 263]; 5.18e-05
4. C=CC(=O)N1CC[C@H](N2CC(c3cc4c(c(C)n3)O[C@H](C)c3c(C5CCOCC5)ccnc3N4)C2)C1 (single isomer, unassigned); 4.6e-05
5. C=CC(=O)N1CCC(N2CC(c3cc4c(c(C)n3)O[C@H](C)c3c(C5CCOCC5)ccnc3N4)C2)CC1 (single isomer, unassigned); 2.79e-05
6. C#Cc1cc(C2CCN(C3CN(C(=O)C=C)C3)CC2)cc2c1O[C@H](C)c1c(N3CCOCC3)ccnc1N2 (single isomer, unassigned); 4.13e-05
7. C=CC(=O)N1CC(N2CCC(c3cc(C)c4c(c3)Nc3nccc(N5CCS(=O)(=O)CC5)c3CO4)CC2)C1; 5.6e-05
8. C=CC(=O)N1CC(N2CCC(c3cc4c(cn3)OCc3c(C5CCOCC5)ccnc3N4)CC2)C1; 7.73e-05
9. CC#CC(=O)N1CC(N2CC[C@H](c3cc4c(c(C)n3)OCc3c(N5CCOCC5)ccnc3N4)C2)C1 (single isomer, unassigned); 2.21e-05
10. C=CC(=O)N1CC[C@@H](N2CC(c3cc(C)c4c(c3)Nc3nccc(C5CCOCC5)c3CO4)C2)[C@H](F)C1 (racemic); 4.45e-05
11. C=CC(=O)N1CCC(n2cc(-c3cc(C)c4c(c3)Nc3nccc(N5CCOCC5)c3CO4)cn2)CC1; 1.58e-05
12. C=CC(=O)N1CC(N2CC(c3ccc4c(c3)Nc3nccc(-c5cnn(C)c5)c3C(C)O4)C2)C1 (centres unmarked); 7.96e-05
13. C=CC(=O)N1CC[C@@H](N2CC(c3cc4c(c(C)n3)O[C@H](C)c3c(C5CCOCC5)ccnc3N4)C2)C1 (single isomer, unassigned); 4.94e-05
14. CC#CC(=O)N1CCC(N2CC(c3cc4c(c(CCC)n3)OCc3c(N5CCOCC5)ccnc3N4)C2)CC1; 2.84e-05
15. C=CC(=O)N1CCC(N2CCC(c3cc4c(c(C)n3)OCc3c(N5CCOCC5)ccnc3N4)CC2=O)CC1 (centres unmarked); 2.18e-05
16. CC#CC(=O)N1CC(N2CCC(c3cc4c(c(C)n3)OCc3c(N5CCOCC5)ccnc3N4)CC2)C1; 2.96e-05
17. C=CC(=O)N1CCC(N2CC(c3cc4c(c(C)n3)OCc3c(N5CCOCC5)ccnc3N4)C2)CC1; 2.35e-05
18. C#Cc1cc2c(cc1C1CCN(C3CN(C(=O)C=C)C3)CC1)Nc1nccc(N3CCOCC3)c1C(C)O2 (centres unmarked); 3.09e-05
19. CC#CC(=O)N1CCC(n2cc(-c3cc4c(c(C)n3)OCc3c(N5CCOCC5)ccnc3N4)cn2)CC1; 6.61e-06
20. CC#CC(=O)N1CC(N2CCC(c3ccc4c(c3)Nc3nccc(C5CCOCC5)c3CO4)CC2)C1; 4.28e-05
21. CC#CC(=O)N1CC[C@H](N2CC(c3cc4c(c(C5CC5)n3)O[C@@H](C)c3c(N5CCOCC5)ccnc3N4)C2)C1 (single isomer, unassigned); 3e-05
22. C=CC(=O)N1CC[C@H](N2CC(c3cc4c(c(C)n3)OCc3c(-c5cnn(C)c5)ccnc3N4)C2)[C@H](F)C1 (mixture of isomers); 4.9e-05
23. C=CC(=O)N1CC(N2CCC(c3cc4c(cn3)OCc3c(N5CCOCC5)ccnc3N4)CC2)C1; 6.41e-05
24. C#CCCN(C)C/C=C/C(=O)N1CC(N2CCC(c3ccc4c(c3)Nc3nccc(N5CCOCC5)c3[C@@H](C)O4)CC2)C1 (single isomer, unassigned); 4.72e-05
25. C=CC(=O)N1CCC(N2CC(c3cc(Cl)c4c(c3C)Nc3nccc(C5CCOCC5)c3CO4)C2)CC1; 2.5e-05
26. C=CC(=O)N1CC(N2CCC(c3cc4c(cn3)O[C@@H](C)c3c(N5CCOCC5)ccnc3N4)CC2)C1 (single isomer, unassigned) [Compound 172]; 5.53e-05
